Tested on: PCSK9 mRNA
Assay type: cell-based, human
Conditions: Hep3B cells, 100 nM, relative to untreated control cells, 0 = no reduction observed
Strand notation (5' to 3'): a small letter for the sugar, then the base; units joined by * are phosphorothioate-linked, units joined directly phosphodiester-linked; [ ] holds rarer units or linkages, { } end groups; capitals alone tell only the bases. e = 2'-O-(2-methoxyethyl) (MOE); [5mC] = 5-methylcytosine; d = 2'-deoxy (DNA)
Below, each of the substances is paired with its reported % Inhib value.
The response must be a number in % with no trailing unit.

substance="400313 (antisense eG*e[5mC]*dA*dT*d[5mC]*d[5mC]*d[5mC]*dG*dG*d[5mC]*d[5mC]*dG*e[5mC]*eT) [compound 400313]" target_desc="PCSK9 mRNA" metric_name="% Inhib" unit_of_measure=% experimental_value=10
substance="400311 (antisense eA*eT*d[5mC]*d[5mC]*d[5mC]*dG*dG*d[5mC]*d[5mC]*dG*d[5mC]*dT*eG*eA) [compound 400311]" target_desc="PCSK9 mRNA" metric_name="% Inhib" unit_of_measure=% experimental_value=18
substance="400330 (antisense e[5mC]*e[5mC]*dA*d[5mC]*dG*dT*dG*dG*dG*d[5mC]*dA*dG*e[5mC]*eA) [compound 400330]" target_desc="PCSK9 mRNA" metric_name="% Inhib" unit_of_measure=% experimental_value=43
substance="400332 (antisense e[5mC]*eA*dG*dG*dG*dA*dA*d[5mC]*d[5mC]*dA*dG*dG*e[5mC]*e[5mC]) [compound 400332]" target_desc="PCSK9 mRNA" metric_name="% Inhib" unit_of_measure=% experimental_value=0
substance="400370 (antisense eG*e[5mC]*d[5mC]*dG*dG*d[5mC]*dT*d[5mC]*d[5mC]*dG*dG*d[5mC]*eA*eG) [compound 400370]" target_desc="PCSK9 mRNA" metric_name="% Inhib" unit_of_measure=% experimental_value=13
substance="400352 (antisense e[5mC]*eA*d[5mC]*d[5mC]*d[5mC]*dT*d[5mC]*dA*d[5mC]*d[5mC]*d[5mC]*d[5mC]*e[5mC]*eA) [compound 400352]" target_desc="PCSK9 mRNA" metric_name="% Inhib" unit_of_measure=% experimental_value=29
substance="400346 (antisense eG*eA*dG*d[5mC]*dA*dG*d[5mC]*dT*d[5mC]*dA*dG*d[5mC]*eA*eG) [compound 400346]" target_desc="PCSK9 mRNA" metric_name="% Inhib" unit_of_measure=% experimental_value=5
substance="400319 (antisense e[5mC]*eG*dA*dA*dT*dA*dA*dA*d[5mC]*dT*d[5mC]*d[5mC]*eA*eG) [compound 400319]" target_desc="PCSK9 mRNA" metric_name="% Inhib" unit_of_measure=% experimental_value=0
substance="400351 (antisense eA*e[5mC]*d[5mC]*d[5mC]*dT*d[5mC]*dA*d[5mC]*d[5mC]*d[5mC]*d[5mC]*d[5mC]*eA*eA) [compound 400351]" target_desc="PCSK9 mRNA" metric_name="% Inhib" unit_of_measure=% experimental_value=14
substance="400364 (antisense eT*e[5mC]*d[5mC]*dG*dG*d[5mC]*dA*dG*d[5mC]*dA*dG*dA*eT*eG) [compound 400364]" target_desc="PCSK9 mRNA" metric_name="% Inhib" unit_of_measure=% experimental_value=0

Measured % Inhib (PCSK9 mRNA), entry 400301 (antisense e[5mC]*eG*d[5mC]*dT*d[5mC]*d[5mC]*dA*dG*dG*dT*dT*d[5mC]*e[5mC]*eA) [compound 400301] : 27

Measured % Inhib (PCSK9 mRNA), entry 400300 (antisense eG*eG*dG*dA*dT*dG*d[5mC]*dT*d[5mC]*dT*dG*dG*eG*e[5mC]) [compound 400300] : 9

The measured values listed here are drawn from patent US8372967B2.
